tested on: SW-620 colon; experiment: NCI tumour cell line growth inhibition, 48 h
measured-endpoint: TGI

molecule	target-or-system	measured-endpoint	result
CN1CCN(C(=O)/C=C/c2ccc([N+](=O)[O-])o2)CC1	SW-620 colon	TGI	37.1 µM
CO/C(N)=C(\C#N)N=Cc1ccsc1	SW-620 colon	TGI	> 100 µM
O=S1(=O)C(=C(c2ccccc2)c2ccccc2)S(=O)(=O)c2ccccc21	SW-620 colon	TGI	> 100 µM
CN1S(=O)(=O)N(C)P12(N=P(CP(=NP13(N(C)S(=O)(=O)N1C)N(C)S(=O)(=O)N3C)(c1ccccc1)c1ccccc1)(c1ccccc1)c1ccccc1)N(C)S(=O)(=O)N2C	SW-620 colon	TGI	> 100 µM
O=C1c2ccccc2N1C(=O)c1ccccc1[N+](=O)[O-]	SW-620 colon	TGI	> 100 µM
COc1ccc2cc3n(c(=O)c2c1)CCc1c-3cc(OC)c(OC)c1OC	SW-620 colon	TGI	> 100 µM
COc1cc2c(cc1C)NC(=O)/C2=C\c1ccc(Oc2ccccc2)cc1	SW-620 colon	TGI	32.5 µM
N#CCC(=O)N/N=C\C(O)C(O)C(O)C(O)CO (stereo not given)	SW-620 colon	TGI	> 100 µM
CC(C)=CCC[C@@H](C)C1=C(N)C(O)=C(C)C(=O)C1=O	SW-620 colon	TGI	> 75 µM
CC[C@]12C=CCN3CC[C@@]4(c5ccc(OC)cc5N(C)[C@H]4[C@@](O)(C(=O)OC)[C@@H]1OC(=O)CCCN1CCN(CCCC(=O)O[C@@H]4[C@]5(CC)C=CCN6CC[C@@]7(c8ccc(OC)cc8N(C)[C@H]7[C@@]4(O)C(=O)OC)[C@@H]65)CC1)[C@@H]32	SW-620 colon	TGI	3.21 µM
O=S(=O)(O)C(c1ccccc1)C(O)c1ccccc1 (stereo not given)	SW-620 colon	TGI	> 100 µM
COC(=O)c1c(C)cccc1C1CN=NC12Cc1cc(C)c(C)cc1C2=O (stereo not given)	SW-620 colon	TGI	> 100 µM
Cc1nn(C(=O)Cc2ccccc2)c2c1C(c1ccc(/C=C/c3ccccc3)cc1)SC(N)=N2 (stereo not given)	SW-620 colon	TGI	> 100 µM
CC(=O)Oc1ccc(-c2nnc(-c3ccc(OC(C)=O)cc3)nn2)cc1	SW-620 colon	TGI	> 100 µM
O=C(NC1CCCCC1)c1n[nH]nc1Cl	SW-620 colon	TGI	> 100 µM
CC1(C)CC(=O)C(C(=O)Nc2cccs2)=C(O)C1	SW-620 colon	TGI	> 100 µM
CCCCC(C(=O)C(=O)Nc1ccccc1CC)C(=O)C(C)C (stereo not given)	SW-620 colon	TGI	> 100 µM
O=C(/C=C/c1ccccc1)CCN1CCCCC1	SW-620 colon	TGI	41.6 µM
CN(C)CCNC(=O)c1cccc2c1nc(-c1cccnc1)c1ccccc12	SW-620 colon	TGI	25.3 µM
CC1=C(C(=O)Nc2ccc3[nH]ncc3c2)C(c2ccc(F)cc2)N=C(c2ccc(C(F)(F)F)nc2)N1 (stereo not given)	SW-620 colon	TGI	> 25 µM
O=C1/C(=C/c2ccc(Br)s2)NC(=S)N1CN1CCCCC1	SW-620 colon	TGI	> 100 µM
CC(C)(CCCCC(C)(C)NC1=NCCO1)NC1=NCCO1	SW-620 colon	TGI	> 10 µM
C=C1CC[C@@H]2[C@](C)(COC(=O)CCC(=O)OC)CCC[C@@]2(C)[C@@H]1CCC1=CC(=O)OC1	SW-620 colon	TGI	> 100 µM
O=C1c2ccccc2C2(O)N(c3ccccc3)C(=S)N(c3ccccc3)C12O (stereo not given)	SW-620 colon	TGI	> 100 µM
C=CCN(CC=C)Cc1c[nH]c2ccccc12	SW-620 colon	TGI	> 100 µM
